Where these numbers come from: patent EP4786492A1

target: human delta-like ligand 3 (DLL3) on SHP77 cells (human) (UniProt Q9NYJ7); test: FACS on SHP77 cells
Sequence (Q9NYJ7 27-618, stated change not applied): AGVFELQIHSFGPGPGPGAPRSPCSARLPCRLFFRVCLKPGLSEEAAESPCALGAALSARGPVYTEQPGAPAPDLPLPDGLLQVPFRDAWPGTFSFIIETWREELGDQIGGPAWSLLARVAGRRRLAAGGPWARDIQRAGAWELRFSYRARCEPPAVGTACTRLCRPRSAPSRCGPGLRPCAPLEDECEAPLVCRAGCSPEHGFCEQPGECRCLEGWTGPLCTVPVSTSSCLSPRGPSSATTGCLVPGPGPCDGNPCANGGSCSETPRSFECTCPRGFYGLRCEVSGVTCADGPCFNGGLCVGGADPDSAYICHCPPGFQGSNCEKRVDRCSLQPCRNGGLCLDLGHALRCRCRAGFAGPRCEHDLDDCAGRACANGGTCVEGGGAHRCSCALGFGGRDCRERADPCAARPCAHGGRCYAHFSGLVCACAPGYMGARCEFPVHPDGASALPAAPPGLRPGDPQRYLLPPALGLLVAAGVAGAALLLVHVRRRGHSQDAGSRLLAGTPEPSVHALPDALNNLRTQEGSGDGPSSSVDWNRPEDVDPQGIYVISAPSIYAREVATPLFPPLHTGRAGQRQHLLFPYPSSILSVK
Short version: MFI at 20 nM at least 800 MFI is yes, less is no.

Ask: Please indicate if the recorded MFI at 20 nM for Hab014VL3VH1-hFc (scFv, part only; not given: VL-VH linker and human IgG1 Fc, V domains shown, not shown: another chain or arm of the molecule; a dimerising Fc or GST; small tags and cut ends) VL: DIVMTQSPDSLAVSLGERATINCKASEDIYNRLAWYQQKPGQTPKLLISGATSLETGVPDRFSGSGSGKDFTLTISSLQAEDVAVYYCQQYWSLPWTFGGGTKVEIK VH: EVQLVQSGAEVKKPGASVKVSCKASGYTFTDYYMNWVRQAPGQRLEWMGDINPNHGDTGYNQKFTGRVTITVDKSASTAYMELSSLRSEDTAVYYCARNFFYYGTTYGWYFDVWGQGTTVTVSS meets or exceeds 800 MFI.
Reply: no

Ask: Please indicate if the recorded MFI at 20 nM for Hab015VL5VH5a-hFc (scFv, part only; not given: scFv linker and human IgG1 Fc, V domains shown, not shown: another chain or arm of the molecule; a dimerising Fc or GST; small tags and cut ends) VL: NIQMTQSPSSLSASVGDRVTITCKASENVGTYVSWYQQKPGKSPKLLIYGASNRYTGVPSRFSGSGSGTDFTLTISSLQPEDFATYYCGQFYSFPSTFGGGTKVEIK VH: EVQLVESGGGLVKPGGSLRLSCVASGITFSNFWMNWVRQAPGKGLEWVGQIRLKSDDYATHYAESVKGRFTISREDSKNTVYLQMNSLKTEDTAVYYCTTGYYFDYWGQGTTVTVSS meets or exceeds 800 MFI.
Reply: yes

Ask: Please indicate if the recorded MFI at 20 nM for Hab015VL5VH6a-hFc (scFv, part only; not given: scFv linker and human IgG1 Fc, V domains shown, not shown: another chain or arm of the molecule; a dimerising Fc or GST; small tags and cut ends) VL: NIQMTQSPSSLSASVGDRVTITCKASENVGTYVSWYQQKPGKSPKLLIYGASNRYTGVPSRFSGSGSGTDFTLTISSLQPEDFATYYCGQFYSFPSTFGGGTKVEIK VH: EVQLVESGGGLVKPGGSLRLSCAASGITFSNFWMNWVRQAPEKGLEWVGQIRLKSDDYATHYAESVKGRFTISREDSKNTVYLQMNSLKTEDTAVYYCTTGYYFDYWGQGTTVTVSS meets or exceeds 800 MFI.
Reply: no

Ask: Please indicate if the recorded MFI at 20 nM for Hab015VL4VH1a-hFc (scFv, part only; not given: scFv linker and human IgG1 Fc, V domains shown, not shown: another chain or arm of the molecule; a dimerising Fc or GST; small tags and cut ends) VL: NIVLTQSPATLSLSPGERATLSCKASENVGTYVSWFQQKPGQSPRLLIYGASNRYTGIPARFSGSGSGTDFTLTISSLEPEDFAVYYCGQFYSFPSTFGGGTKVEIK VH: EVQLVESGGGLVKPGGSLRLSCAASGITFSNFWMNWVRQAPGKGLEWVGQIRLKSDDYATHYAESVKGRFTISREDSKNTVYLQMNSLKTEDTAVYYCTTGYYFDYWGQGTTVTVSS meets or exceeds 800 MFI.
Reply: yes

Ask: Please indicate if the recorded MFI at 20 nM for Hab009VL2aVH1-hFc (scFv, part only; not given: VL-VH linker and human IgG1 Fc, V domains shown, not shown: another chain or arm of the molecule; a dimerising Fc or GST; small tags and cut ends) VL: DIVMTQSPLSLPVTPGEPASISCRASQTISDYLHWYLQKPGQSPRLLIKYASQSISGVPDRFSGSGSGTDFTLKISRVEAEDVGVYYCQQGHSFPLTFGQGTKLEIK VH: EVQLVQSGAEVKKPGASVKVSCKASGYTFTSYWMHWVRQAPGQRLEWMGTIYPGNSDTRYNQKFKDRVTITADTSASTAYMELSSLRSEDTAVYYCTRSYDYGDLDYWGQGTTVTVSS meets or exceeds 800 MFI.
Reply: yes

Ask: Please indicate if the recorded MFI at 20 nM for Hab015VL4VH5a-hFc (scFv, part only; not given: VL-VH linker and human IgG1 Fc, V domains shown, not shown: another chain or arm of the molecule; a dimerising Fc or GST; small tags and cut ends) VL: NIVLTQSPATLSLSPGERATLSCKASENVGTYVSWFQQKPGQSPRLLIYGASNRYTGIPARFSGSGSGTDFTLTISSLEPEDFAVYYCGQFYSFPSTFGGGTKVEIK VH: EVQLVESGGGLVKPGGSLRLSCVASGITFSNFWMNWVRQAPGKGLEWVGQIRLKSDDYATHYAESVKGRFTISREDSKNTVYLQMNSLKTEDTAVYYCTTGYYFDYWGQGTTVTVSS meets or exceeds 800 MFI.
Reply: yes

Ask: Please indicate if the recorded MFI at 20 nM for Hab015VL4VH1b-hFc (scFv, part only; not given: VL-VH linker and human IgG1 Fc, V domains shown, not shown: another chain or arm of the molecule; a dimerising Fc or GST; small tags and cut ends) VL: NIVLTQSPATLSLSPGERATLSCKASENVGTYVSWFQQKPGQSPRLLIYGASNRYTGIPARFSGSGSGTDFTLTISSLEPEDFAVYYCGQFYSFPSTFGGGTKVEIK VH: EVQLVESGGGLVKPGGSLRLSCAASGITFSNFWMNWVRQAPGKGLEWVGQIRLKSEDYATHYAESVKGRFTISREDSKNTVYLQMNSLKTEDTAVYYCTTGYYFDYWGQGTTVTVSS meets or exceeds 800 MFI.
Reply: yes

Ask: Please indicate if the recorded MFI at 20 nM for Hab015VL4VH6a-hFc (scFv, part only; not given: scFv linker and human IgG1 Fc, V domains shown, not shown: another chain or arm of the molecule; a dimerising Fc or GST; small tags and cut ends) VL: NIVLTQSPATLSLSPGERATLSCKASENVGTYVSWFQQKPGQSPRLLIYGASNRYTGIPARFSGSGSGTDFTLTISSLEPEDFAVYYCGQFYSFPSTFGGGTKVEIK VH: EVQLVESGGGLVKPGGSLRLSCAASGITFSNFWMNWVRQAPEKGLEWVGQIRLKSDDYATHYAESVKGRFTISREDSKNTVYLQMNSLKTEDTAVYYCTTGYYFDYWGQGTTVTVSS meets or exceeds 800 MFI.
Reply: yes
